- experiment_summary: in vitro
- condition_info: rat, gh3-tre-luc cells, AC50 (uM) modified / 1000
metric_name: CC50 at 24 h

Solved entries (count: 4):
CC(O)Cn1cnc2c1c(=O)n(C)c(=O)n2C (centres unmarked) [Proxyphylline] : > 20 µM
O=C(Cl)c1cccc(C(=O)Cl)c1 [1,3-Benzenedicarbonyl dichloride] : > 90 µM
CC(CCO)CCCC(C)(C)O (centres unmarked) [3,7-Dimethyloctane-1,7-diol] : > 90 µM
CCCCC(CC)COC(=O)CCCCC(=O)OCC(CC)CCCC (centres unmarked) [Bis(2-ethylhexyl)hexanedioate] : > 90 µM

Exam item: Consider the compound shown here: O=[N+]([O-])c1ccc(NCCO)c(OCCO)c1 [HC Yellow 4] What is its recorded CC50 at 24 h?
Marked response: 58.6 µM

* * *

- experiment_summary: in vitro
- condition_info: rat, gh3-tre-luc cells, AC50 (uM) modified / 1000
Counter-ions that a name gives are not always drawn.
metric_name: CC50 at 24 h

Solved entries (count: 5):
Nc1ccc(Sc2ccc(N)cc2)cc1 : > 90 µM
NC(=O)c1ccc([N+](=O)[O-])cc1 [4-Nitrobenzamide] : > 90 µM
CC(C)NNC(=O)c1ccncc1 [Iproniazid sulfate] : > 50 µM
COc1cccc(C(=O)NN(C(=O)c2cc(C)cc(C)c2)C(C)(C)C)c1C [Methoxyfenozide] : > 90 µM
COC(=O)C(c1ccccc1)C1CCCCN1 (centres unmarked) [Methylphenidate hydrochloride] : > 90 µM

Record CC50 at 24 h for all entries; do not skip any.
1. Oc1ccc2c(c1)Cc1ccccc1-2 [2-Hydroxyfluorene]
2. CC(O)c1ccccc1 (centres unmarked)

Marked response:
1. 77.9 µM
2. > 90 µM

Record CC50 at 24 h for all entries; do not skip any.
1. O=C(O)CS
2. CC(=O)N[C@@H](CS)C(=O)O
3. OCCCCCCCl
4. BrCC(Br)(Br)Br
5. C[C@H](CS)C(=O)N1CCC[C@H]1C(=O)O
6. CCN(CC)C(C)=O [Diethylacetamide]
7. FC1(F)C(F)(F)C(F)(F)C2(F)C(F)(C1(F)F)C(F)(F)C(F)(F)C1(F)C(F)(F)C(F)(F)C(F)(F)C(F)(F)C12F (centres unmarked)

Marked response:
["> 90 µM", "> 90 µM", "> 100 µM", "> 90 µM", "> 50 µM", "> 100 µM", "> 80 µM"]

Record CC50 at 24 h for all entries; do not skip any.
1. CC[C@H](C)[C@@H]1NC(=O)[C@H](Cc2ccc(O)cc2)NC(=O)[C@@H](N)CSSC[C@@H](C(=O)N2CCC[C@H]2C(=O)N[C@@H](CC(C)C)C(=O)NCC(N)=O)NC(=O)[C@H](CC(N)=O)NC(=O)[C@H](CCC(N)=O)NC1=O [Oxytocin acetate]
2. C=CC(=O)NCNC(=O)C=C [N,N'-Methylenebisacrylamide]
3. Nc1nc2nc[nH]c2c(=S)[nH]1

Marked response:
1: > 50 µM; 2: > 90 µM; 3: > 90 µM

* * *

- experiment_summary: in vitro
- condition_info: rat, gh3-tre-luc cells, AC50 (uM) modified / 1000, Tox21_110001=Tox21_200909; viability, 1 nM T3 present, 24 h
metric_name: CC50 at 24 h

Exam item: Consider the compound shown here: Oc1cccc(Cl)c1Cl What is its recorded CC50 at 24 h?
Marked response: > 90 µM

* * *

- experiment_summary: in vitro
- condition_info: rat, gh3-tre-luc cells, AC50 (uM) modified / 1000, Tox21_110001=Tox21_300613; viability, 1 nM T3 present, 24 h
metric_name: CC50 at 24 h

Exam item: Consider the compound shown here: ClC1=C(Cl)[C@]2(Cl)[C@@H]3[C@H]4C[C@H]([C@@H]5O[C@H]45)[C@@H]3[C@@]1(Cl)C2(Cl)Cl What is its recorded CC50 at 24 h?
Marked response: > 90 µM

* * *

- Test system: GH3-TRE-Luc cell line
- condition_info: read-out: AC50 (uM) modified / 1000; Tox21_110001=Tox21_303608; viability, 1 nM T3 present, 24 h
metric_name: CC50 (µM)
Numbers only, in µM.

Exam item: Consider the compound shown here: CC(C)CC(C)(c1ccc(O)cc1)c1ccc(O)cc1 What is its recorded CC50?
Marked response: 34

* * *

Please provide measured Active in global cytotoxicity assays (%) for the entries that follow.
- Test system: Tox21 cell viability assays (different cell types)
- experiment_summary: Global cytotoxicity: eighteen Tox21 cell viability assays
- Format: cell-based
Give bare numbers, in %.

COc1cccc2c1C(=O)c1c(O)c3c(c(O)c1C2=O)C[C@@](O)(C(C)=O)C[C@@H]3O[C@H]1C[C@H](N)[C@H](O)[C@H](C)O1 [Daunorubicin] : 66.1
Nc1nc(F)nc2c1ncn2[C@@H]1O[C@H](CO)[C@@H](O)[C@@H]1O [Fludarabine, reference compound] : 1.7

Exam item: Consider the molecule shown here: CC(C)C[C@H](NC(=O)[C@H](CCc1ccccc1)NC(=O)CN1CCOCC1)C(=O)N[C@@H](Cc1ccccc1)C(=O)N[C@@H](CC(C)C)C(=O)[C@@]1(C)CO1 [Carfilzomib] What is its recorded Active in global cytotoxicity assays (%)?
Marked response: 64.4

* * *

- Tested on: GH3-TRE-Luc cell line
- condition_info: read-out: AC50 (uM) modified / 1000; Tox21_110001=Tox21_303445; viability, 1 nM T3 present, 24 h
metric_name: CC50 (µM)
Give bare numbers, in µM.

Exam item: Consider the compound shown here: [H]/N=C(\N/C(=N/[H])NCCCCCCNC(=N)NC(=N)Nc1ccc(Cl)cc1)Nc1ccc(Cl)cc1 [Chlorhexidine] What is its recorded CC50?
Marked response: 6.48

* * *

- experiment_summary: in vitro
- condition_info: rat, gh3-tre-luc cells, AC50 (uM) modified / 1000
Counter-ions that a name gives are not always drawn.
metric_name: CC50 at 24 h

Solved entries (count: 4):
CC(=O)C(C)O (centres unmarked) [Acetoin] : > 90 µM
O=C(O)[C@H]1CN(C/C=C/P(=O)(O)O)CCN1 [Midafotel] : > 50 µM
CCCCCCCCCCCCCCCC(=O)OC[C@@H](O)[C@H]1OC[C@H](O)[C@H]1O [Sorbitan monohexadecanoate] : > 50 µM
CSc1ccc(C(=O)c2[nH]c(=O)[nH]c2C)cc1 [Enoximone] : > 50 µM

Record CC50 at 24 h for all entries; do not skip any.
1. CC[N+](C)(C)c1cccc(O)c1 [Edrophonium chloride]
2. O=P(O)(O)CP(=O)(O)O [Medronic acid]
3. CC(=O)N[C@@H]1[C@@H](O)[C@H](O)[C@@H](CO)O[C@H]1O [N-Acetylglucosamine]
4. CCCCCC(O)/C=C/C=O (centres unmarked) [(2E)-4-Hydroxy-2-nonenal]
5. OCCN1CCN(CCCN2c3ccccc3Sc3ccc(Cl)cc32)CC1 [Perphenazine]
6. ClCc1cccnc1 [3-(Chloromethyl)pyridine hydrochloride]
7. C#CCOS(=O)OC1CCCCC1Oc1ccc(C(C)(C)C)cc1 (centres unmarked) [Propargite]

Marked response:
1. > 20 µM
2. > 50 µM
3. > 50 µM
4. > 50 µM
5. 4.46 µM
6. > 90 µM
7. 5.83 µM

Record CC50 at 24 h for all entries; do not skip any.
1. c1ccc2cnccc2c1 [Isoquinoline]
2. OCC(S)CS (centres unmarked) [Dimercaprol]
3. COc1cc(C(C)C)c2c(c1)S(=O)(=O)N(COc1cc(=O)n3cccc(OCCN4CCCCC4)c3n1)C2=O [SSR69071]

Marked response:
1. > 90 µM
2. 12.5 µM
3. 11.9 µM

* * *

- experiment_summary: in vitro
- condition_info: rat, gh3-tre-luc cells, AC50 (uM) modified / 1000, Tox21_110001=Tox21_200913; viability, 1 nM T3 present, 24 h
metric_name: CC50 at 24 h

Exam item: Consider the molecule shown here: O=C(O)C(Br)(Br)Br What is its recorded CC50 at 24 h?
Marked response: > 90 µM

* * *

- experiment_summary: in vitro
- condition_info: rat, gh3-tre-luc cells, AC50 (uM) modified / 1000
Structures can show the parent of a compound that is named as a salt.
metric_name: CC50 at 24 h

Nc1ccn([C@@H]2O[C@H](CO)[C@@H](O)C2(F)F)c(=O)n1 [Gemcitabine hydrochloride] : 0.153 µM
Cl[C@H]1[C@H](Cl)[C@@H](Cl)[C@H](Cl)[C@@H](Cl)[C@@H]1Cl : > 90 µM
CCCCC/C=C\C/C=C\C/C=C\CCCCC(=O)O : > 50 µM

Record CC50 at 24 h for all entries; do not skip any.
1. C=C1CC[C@H](O)C/C1=C/C=C1\CCC[C@]2(C)[C@@H]([C@H](C)/C=C/[C@H](C)C(C)C)CC[C@@H]12
2. CN(C)c1ccncc1
3. NC(=O)c1ccc[n+]([C@@H]2O[C@H](COP(=O)([O-])OP(=O)(O)OC[C@H]3O[C@@H](n4cnc5c(N)ncnc54)[C@H](O)[C@@H]3O)[C@@H](O)[C@H]2O)c1 [Nadide]
4. O=C1Nc2ccccc2C1(c1ccc(O)cc1)c1ccc(O)cc1
5. [O-][N+](=Nc1ccccc1)c1ccccc1

Marked response:
["42.5 µM", "> 90 µM", "> 20 µM", "61.2 µM", "> 90 µM"]

Record CC50 at 24 h for all entries; do not skip any.
1. O=C(O)c1cc(C(=O)O)cc(C(=O)O)c1
2. Cc1cccc(Cc2c[nH]cn2)c1C [Detomidine hydrochloride]

Marked response:
1: > 90 µM; 2: > 50 µM

Record CC50 at 24 h for all entries; do not skip any.
1. CCCCCCCCCCCCCBr
2. COCCOC(=O)C1=C(C)NC(C)=C(C(=O)OC(C)C)C1c1cccc([N+](=O)[O-])c1 (stereo not drawn)
3. NCCNCCN
4. O=S(=O)(O)c1cc(O)c2c(/N=N/c3ccc(Nc4ccccc4)c4c(S(=O)(=O)O)cccc34)cc(S(=O)(=O)O)cc2c1 [Anazolene sodium]
5. O=C(Nc1ccc2c(O)c(N=Nc3ccc(N=Nc4ccc(S(=O)(=O)O)cc4)cc3)c(S(=O)(=O)O)cc2c1)c1ccccc1 [C.I. Direct Red 81 disodium salt]
6. CCCCCCCCS(=O)(=O)O [Sodium 1-octanesulfonate]
7. Oc1cc(O)c(Cl)cn1

Marked response:
1: > 90 µM; 2: > 50 µM; 3: > 90 µM; 4: 22.8 µM; 5: 35.6 µM; 6: > 90 µM; 7: > 50 µM

Record CC50 at 24 h for all entries; do not skip any.
1. CS/C(C)=N\OC(=O)N(C)SN(C)C(=O)O/N=C(\C)SC
2. Nc1ccc2c(c1)C(=O)c1ccccc1C2=O
3. OCC(CO)(CO)CO
4. CCN(CC)c1ccc(C(=C2C=CC(=[N+](CC)CC)C=C2)c2ccccc2)cc1

Marked response:
1: 39.7 µM; 2: > 90 µM; 3: > 100 µM; 4: 0.384 µM

Data origin, for the record: paper PMC6792352
